ASSAY_PROTOCOL: CEETOX_H295R_11DCORT: CeeTox H295R High-throughput Steroidogenesis Assay for 11-Deoxycortisol (11DCORT) (AID 2283432)
CONDITION: actives raise or lower the signal
Active and inactive are the calls of the source. Rule for the calls: active = hit-call score of the fitted dose curve at least 0.9, where 1 is the maximum; inactive = score below 0.9.
Outcome codes: true (active), false (inactive)

>>> df
                           structure_string  group_label
0  C[C@]12CC[C@@H](O)C[C@@H]1CC[C@@H]1[C@@H]2CC[C@]2(C)C(=O)CC[C@@H]12        false
1                             COc1ccc(N)cc1        false
2          CCOP(=S)(OCC)O/N=C(\C#N)c1ccccc1         true
3         Cc1cc(C(C)(C)c2ccc(O)c(C)c2)ccc1O         true
4     Cc1ccccc1OP(=O)(Oc1ccccc1C)Oc1ccccc1C        false
